Value source: patent US20260109763A1

TEST TARGET: human PILRA G78 on cells (human, UniProt Q9UKJ1 20-303)
Sequence (Q9UKJ1 20-303 R78G limits assumed): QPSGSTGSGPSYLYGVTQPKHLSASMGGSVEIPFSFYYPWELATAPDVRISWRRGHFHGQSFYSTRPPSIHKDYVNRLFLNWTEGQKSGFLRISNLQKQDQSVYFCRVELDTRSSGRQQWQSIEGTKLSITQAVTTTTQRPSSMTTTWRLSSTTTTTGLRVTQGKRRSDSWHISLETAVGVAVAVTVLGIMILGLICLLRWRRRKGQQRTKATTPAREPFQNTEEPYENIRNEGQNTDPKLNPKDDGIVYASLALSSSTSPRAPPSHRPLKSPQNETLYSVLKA
TEST DETAILS: cell-based or functional assay
Consider the following binders and their measured pSTAT3 Y705 induction, Fold Over Background readings.
Write down the numeric answer in fold and omit the unit.

Would you please look over these solved cases?
# BINDER, UNIT STRING, ASSAY RESULT
measured = [
    ("Anti-PILRA antibody clone 7 (antibody, V domains shown) VH: EVQLQQSGPELQRPGASVKLSCKASGYTFTEYYMYWVKQRPKQGLELMGRIDPEDGGTDYVEKFKNKATLTADTSSNTAYMQLSSLTSEDTATYFCASTIRGTVFVYWGQGTLVTVSS VL: DIQMTQSPASLSASLGETVTIECRPSEDIYNGLAWYQQKPGESPQLLIYNANSLHTGVPSRFSGSGSGTQYSLKINSLQSEDVASYFCQQYYDYPLTFGSGTKLEIK", "fold", 32.5),
    ("Anti-PILRA antibody clone 15 (antibody, V domains shown, Humanized; also called Ab.15) VH: EVQLVQSGAEVKKPGASVKVSCKASGYTFTEYYMYWVRQAPGQGLELIGRIDPEDGGTDYIEKFKNRSTLTADTSTSTAYLELSSLRSEDTAVYFCATTIRGTVFAFWGQGTLVTVSS VL: DIQMTQSPSSLSASVGDRVTITCRASEDIFNGLAWYQQKPGKSPKLLIYNAKTLHTGVPSRFSGSGSGSDYTLTISSLQPEDFATYFCQQYYDYPLTFGQGTKVEIK", "fold", 33.5),
    ("Anti-PILRA antibody clone 35 (antibody, V domains shown, Humanized; also called Ab.35) VH: EVQLVQSGAEVKKPGASVKVSCKASGYTFTEYYMYWVRQAPGQGLELIGRIDPEDGGTDYVEKFKNRATLTADTSTSTAYLELSSLRSEDTAVYFCASTIRGTVFVYWGQGTLVTVSS VL: DIQMTQSPSSLSASVGDRVTITCRPSEDIYNGLAWYQQKPGKSPKLLIYNANSLHTGVPSRFSGSGSGTDYTLTISSLQPEDFATYFCQQYYDYPLTFGQGTKVEIK", "fold", 35.5),
]

In the following, a different binder is considered.
Query block: Entry Anti-PILRA antibody clone 12 (antibody, V domains shown, Humanized; also called Ab.12) VH: EVQLVQSGAEVKKPGASVKVSCKASGYTFTEYYMYWVRQAPGQGLELIGRIDPEDGGTDYIEKFKNRVTITADTSTSTAYLELSSLRSEDTAVYYCATTIRGTVFAFWGQGTLVTVSS VL: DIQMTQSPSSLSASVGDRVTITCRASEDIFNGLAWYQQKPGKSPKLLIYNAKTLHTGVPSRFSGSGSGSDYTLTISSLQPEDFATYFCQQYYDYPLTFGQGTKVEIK has what pSTAT3 Y705 induction, Fold Over Background?
Result block: 31.3
